# Tested on: NF-kB-dependent TNF-α secretion
# experimental.protocol: TNF-α secretion assay in THP-1 cells (counter screen, HTRF)
# Assay type: cell-based
# condition.context: Homo sapiens, Pam3CSK4-stimulated, 3 hours
pIC50: −log10 of the molar value.
assay.metric: pIC50

Worked examples follow.
>>> reading("Cc1cc(C(F)(F)F)cc(O)c1-c1ccc(NC[C@@H]2C[C@H](F)CN2)nn1")
"< 4.00"
>>> reading("Cc1cc(N[C@@H]2CCCN(C)C2)nnc1-c1ccc(OC(F)(F)F)cc1O")
"< 4.00"
>>> reading("CCN1CCC[C@@H](Nc2nnc(-c3c(C)cc(C(F)(F)F)cc3O)cc2C)C1")
"< 4.00"
>>> reading("Cc1cc(C(F)(F)F)cc(O)c1-c1ccc(N[C@@H]2CC[C@@H](O)[C@H]2O)nn1 [Ex 89b]")
"< 4.00"
>>> reading("C[C@]1(O)C[C@@H](Nc2cc(C(F)(F)F)c(-c3ccc(C(F)(F)F)cc3O)nn2)C1")
"< 4.48"

pIC50 of `CCN1CCC[C@@H](Nc2nnc(-c3c(C)cc(C(F)(F)F)cc3O)cc2C#N)C1` , assay on NF-kB-dependent TNF-α secretion, is < 4.00

NF-kB-dependent TNF-α secretion assay, compound Cc1cc(C(F)(F)F)cc(O)c1-c1ccc(N[C@@H]2CCC[C@H]2O)nn1 (relative stereo) , recorded pIC50 = 4.43
